Protein target, amino acids: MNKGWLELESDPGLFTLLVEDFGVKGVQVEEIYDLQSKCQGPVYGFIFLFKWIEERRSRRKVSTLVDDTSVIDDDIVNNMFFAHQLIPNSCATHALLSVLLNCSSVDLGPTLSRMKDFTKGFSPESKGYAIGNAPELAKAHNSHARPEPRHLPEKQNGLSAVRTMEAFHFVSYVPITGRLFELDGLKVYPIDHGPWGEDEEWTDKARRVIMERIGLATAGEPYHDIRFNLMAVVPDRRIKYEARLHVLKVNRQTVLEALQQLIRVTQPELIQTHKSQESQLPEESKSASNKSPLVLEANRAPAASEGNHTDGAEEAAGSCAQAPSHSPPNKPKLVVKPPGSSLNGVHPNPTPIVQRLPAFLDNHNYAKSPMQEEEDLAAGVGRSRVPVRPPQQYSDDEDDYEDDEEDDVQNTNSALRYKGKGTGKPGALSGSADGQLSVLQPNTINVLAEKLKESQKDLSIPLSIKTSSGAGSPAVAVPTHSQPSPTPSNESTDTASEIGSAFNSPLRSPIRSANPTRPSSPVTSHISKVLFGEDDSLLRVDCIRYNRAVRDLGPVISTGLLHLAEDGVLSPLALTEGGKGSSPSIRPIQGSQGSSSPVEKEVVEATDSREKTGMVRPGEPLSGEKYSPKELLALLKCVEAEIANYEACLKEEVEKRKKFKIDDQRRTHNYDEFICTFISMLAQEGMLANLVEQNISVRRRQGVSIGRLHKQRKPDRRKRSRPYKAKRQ
parameter: IC50

Given the compound C[C@@H]1[C@H]2CCN(C(=O)c3ncc(-c4ccnc(C#N)c4)o3)[C@H]2CN1C#N , what is its reported IC50?
> 300 µM

* * *

Target: USP14 (Homo sapiens)
Sequence (P54578 whole entry, species assumed): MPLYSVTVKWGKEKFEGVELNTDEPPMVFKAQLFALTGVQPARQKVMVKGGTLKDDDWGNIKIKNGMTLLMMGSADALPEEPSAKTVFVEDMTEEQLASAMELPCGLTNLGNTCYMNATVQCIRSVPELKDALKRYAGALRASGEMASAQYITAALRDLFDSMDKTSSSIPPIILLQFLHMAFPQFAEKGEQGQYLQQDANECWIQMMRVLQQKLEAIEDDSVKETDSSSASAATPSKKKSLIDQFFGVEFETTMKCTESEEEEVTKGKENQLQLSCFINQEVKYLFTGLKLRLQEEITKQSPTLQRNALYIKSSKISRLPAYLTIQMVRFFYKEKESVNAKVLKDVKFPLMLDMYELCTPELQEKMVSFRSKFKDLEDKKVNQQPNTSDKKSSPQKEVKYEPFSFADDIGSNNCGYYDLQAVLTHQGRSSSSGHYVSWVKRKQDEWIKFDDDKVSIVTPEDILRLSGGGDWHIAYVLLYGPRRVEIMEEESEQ
pIC50: −log10 of the molar value.
parameter: pIC50

What pIC50 value was documented for this compound, C[C@@H]1[C@H]2CCN(C(=O)c3ncc(-c4ccnc(C#N)c4)o3)[C@H]2CN1C#N ?
< 3.52

* * *

Biological target: USP9x (Homo sapiens, UniProt Q93008)
Sequence (Q93008 whole entry, species assumed): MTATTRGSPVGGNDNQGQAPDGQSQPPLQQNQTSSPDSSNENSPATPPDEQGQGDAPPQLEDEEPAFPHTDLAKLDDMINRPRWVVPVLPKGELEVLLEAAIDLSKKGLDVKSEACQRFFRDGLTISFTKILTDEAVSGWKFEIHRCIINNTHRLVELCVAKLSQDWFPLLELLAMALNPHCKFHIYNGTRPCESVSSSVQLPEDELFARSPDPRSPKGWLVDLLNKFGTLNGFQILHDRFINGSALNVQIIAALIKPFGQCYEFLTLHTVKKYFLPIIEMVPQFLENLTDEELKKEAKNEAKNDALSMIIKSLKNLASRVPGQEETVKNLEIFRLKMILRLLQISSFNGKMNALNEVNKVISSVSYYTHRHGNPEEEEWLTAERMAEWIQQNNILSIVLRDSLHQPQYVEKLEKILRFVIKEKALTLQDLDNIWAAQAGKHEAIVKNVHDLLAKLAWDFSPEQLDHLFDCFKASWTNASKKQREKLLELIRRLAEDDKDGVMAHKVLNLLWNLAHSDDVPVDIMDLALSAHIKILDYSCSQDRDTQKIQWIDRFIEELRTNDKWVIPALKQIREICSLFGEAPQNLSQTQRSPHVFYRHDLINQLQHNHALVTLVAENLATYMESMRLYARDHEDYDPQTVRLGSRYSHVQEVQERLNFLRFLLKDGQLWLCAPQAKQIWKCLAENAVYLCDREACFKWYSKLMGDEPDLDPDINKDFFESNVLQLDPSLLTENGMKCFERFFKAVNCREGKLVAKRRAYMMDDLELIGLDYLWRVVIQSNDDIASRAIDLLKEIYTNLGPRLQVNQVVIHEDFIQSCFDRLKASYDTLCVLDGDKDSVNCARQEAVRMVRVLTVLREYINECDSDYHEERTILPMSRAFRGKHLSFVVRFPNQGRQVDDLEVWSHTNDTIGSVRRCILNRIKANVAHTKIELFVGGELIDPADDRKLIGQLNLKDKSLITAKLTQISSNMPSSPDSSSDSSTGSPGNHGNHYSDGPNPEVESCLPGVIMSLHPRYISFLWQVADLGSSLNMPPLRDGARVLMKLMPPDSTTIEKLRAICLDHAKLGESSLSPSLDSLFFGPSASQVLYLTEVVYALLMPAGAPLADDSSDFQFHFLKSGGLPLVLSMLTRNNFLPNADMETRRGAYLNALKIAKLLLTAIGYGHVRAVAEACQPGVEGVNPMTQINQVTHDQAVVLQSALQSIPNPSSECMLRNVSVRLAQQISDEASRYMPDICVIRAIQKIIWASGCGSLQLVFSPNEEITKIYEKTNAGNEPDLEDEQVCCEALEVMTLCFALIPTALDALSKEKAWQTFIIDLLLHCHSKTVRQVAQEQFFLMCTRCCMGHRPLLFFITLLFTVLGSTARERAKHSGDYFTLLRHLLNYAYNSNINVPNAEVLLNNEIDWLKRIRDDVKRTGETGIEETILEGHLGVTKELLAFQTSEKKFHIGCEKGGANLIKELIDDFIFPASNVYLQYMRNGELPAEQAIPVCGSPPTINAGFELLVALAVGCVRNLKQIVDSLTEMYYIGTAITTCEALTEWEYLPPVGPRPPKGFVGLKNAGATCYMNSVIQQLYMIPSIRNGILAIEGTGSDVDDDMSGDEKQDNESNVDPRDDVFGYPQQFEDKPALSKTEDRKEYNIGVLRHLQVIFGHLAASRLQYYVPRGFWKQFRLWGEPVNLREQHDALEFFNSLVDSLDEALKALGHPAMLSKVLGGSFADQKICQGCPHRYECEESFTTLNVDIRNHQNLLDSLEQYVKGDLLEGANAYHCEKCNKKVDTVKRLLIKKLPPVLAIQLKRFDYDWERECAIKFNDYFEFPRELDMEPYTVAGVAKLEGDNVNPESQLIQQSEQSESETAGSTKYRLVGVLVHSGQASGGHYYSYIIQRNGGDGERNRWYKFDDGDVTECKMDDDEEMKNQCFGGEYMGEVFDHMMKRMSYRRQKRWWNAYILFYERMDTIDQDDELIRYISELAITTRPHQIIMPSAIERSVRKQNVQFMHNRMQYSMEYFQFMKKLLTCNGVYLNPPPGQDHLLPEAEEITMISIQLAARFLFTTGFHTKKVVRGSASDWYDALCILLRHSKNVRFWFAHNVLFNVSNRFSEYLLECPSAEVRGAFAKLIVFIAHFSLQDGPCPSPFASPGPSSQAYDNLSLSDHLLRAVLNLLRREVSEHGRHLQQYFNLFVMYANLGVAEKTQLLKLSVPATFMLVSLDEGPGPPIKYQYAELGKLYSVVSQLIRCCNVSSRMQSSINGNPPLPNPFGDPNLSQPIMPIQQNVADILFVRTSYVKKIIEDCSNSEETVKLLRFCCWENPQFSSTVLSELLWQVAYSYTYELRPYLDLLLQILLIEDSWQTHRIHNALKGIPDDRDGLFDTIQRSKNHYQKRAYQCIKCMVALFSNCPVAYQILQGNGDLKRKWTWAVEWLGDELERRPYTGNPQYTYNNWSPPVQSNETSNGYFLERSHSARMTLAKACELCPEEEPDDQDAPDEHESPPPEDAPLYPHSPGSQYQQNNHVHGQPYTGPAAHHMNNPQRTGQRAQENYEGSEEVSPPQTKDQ
parameter: IC50

Any idea what IC50 was measured for C[C@@H]1[C@H]2CCN(C(=O)c3ncc(-c4ccnc(C#N)c4)o3)[C@H]2CN1C#N ?
> 300 µM

* * *

Target: USP16 (Homo sapiens)
Sequence (Q9Y5T5 whole entry, species assumed): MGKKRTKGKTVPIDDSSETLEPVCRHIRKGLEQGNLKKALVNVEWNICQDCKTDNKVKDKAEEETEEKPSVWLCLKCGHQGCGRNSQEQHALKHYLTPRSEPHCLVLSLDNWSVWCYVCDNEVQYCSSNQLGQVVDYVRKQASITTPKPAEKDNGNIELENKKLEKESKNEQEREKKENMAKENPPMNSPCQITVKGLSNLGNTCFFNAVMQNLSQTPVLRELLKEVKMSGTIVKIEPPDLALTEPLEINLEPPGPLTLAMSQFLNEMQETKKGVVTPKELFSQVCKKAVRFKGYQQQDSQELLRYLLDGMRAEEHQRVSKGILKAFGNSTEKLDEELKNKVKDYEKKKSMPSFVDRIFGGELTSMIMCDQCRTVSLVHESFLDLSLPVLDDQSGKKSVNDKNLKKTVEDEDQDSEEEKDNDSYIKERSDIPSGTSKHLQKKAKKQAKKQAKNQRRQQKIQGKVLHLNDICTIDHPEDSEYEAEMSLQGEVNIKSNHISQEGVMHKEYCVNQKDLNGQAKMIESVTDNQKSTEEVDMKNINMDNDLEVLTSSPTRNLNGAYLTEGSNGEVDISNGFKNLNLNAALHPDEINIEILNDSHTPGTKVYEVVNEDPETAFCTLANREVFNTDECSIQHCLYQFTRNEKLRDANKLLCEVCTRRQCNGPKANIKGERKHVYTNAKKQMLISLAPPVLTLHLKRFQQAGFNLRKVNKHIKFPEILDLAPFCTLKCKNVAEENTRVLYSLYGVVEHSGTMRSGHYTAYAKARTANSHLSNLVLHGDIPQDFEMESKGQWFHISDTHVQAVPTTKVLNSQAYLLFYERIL
parameter: IC50 (µM)
Numbers only, in µM.

So what's the measured IC50 for this one? C[C@@H]1[C@H]2CCN(C(=O)c3ncc(-c4ccnc(C#N)c4)o3)[C@H]2CN1C#N
83.7

* * *

Molecular target: OTUD3 CD (Homo sapiens, UniProt Q5T2D3)
Sequence (Q5T2D3 65-189 limits assumed): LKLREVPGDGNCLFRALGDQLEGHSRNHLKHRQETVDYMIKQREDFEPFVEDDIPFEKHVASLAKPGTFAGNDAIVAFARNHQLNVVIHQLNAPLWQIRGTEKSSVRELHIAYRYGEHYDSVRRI
pIC50: −log10 of the molar value.
parameter: pIC50

May I ask what pIC50 has been recorded for C[C@@H]1[C@H]2CCN(C(=O)c3ncc(-c4ccnc(C#N)c4)o3)[C@H]2CN1C#N ?
< 3.52

* * *

Target: OTUB1/UBCH5B (Homo sapiens)
Sequence (Q96FW1 whole entry, species assumed): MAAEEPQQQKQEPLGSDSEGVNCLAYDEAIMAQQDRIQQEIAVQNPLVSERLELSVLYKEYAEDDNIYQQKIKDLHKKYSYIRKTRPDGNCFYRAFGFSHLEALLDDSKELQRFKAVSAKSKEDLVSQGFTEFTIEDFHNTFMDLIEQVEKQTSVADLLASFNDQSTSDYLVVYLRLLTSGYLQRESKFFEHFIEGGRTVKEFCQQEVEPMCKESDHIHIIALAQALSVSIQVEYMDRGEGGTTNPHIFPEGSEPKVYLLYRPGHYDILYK
Sequence (P62837 whole entry partner, species assumed): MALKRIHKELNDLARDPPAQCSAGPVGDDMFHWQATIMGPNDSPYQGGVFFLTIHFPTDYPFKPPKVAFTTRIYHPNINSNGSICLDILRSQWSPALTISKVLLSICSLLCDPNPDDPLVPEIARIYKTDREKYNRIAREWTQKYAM
Experiment: DUB/cathepsin selectivity biochemical assay
pIC50: −log10 of the molar value.
parameter: pIC50

Returns the measured pIC50 for the input compound. Input: C[C@@H]1[C@H]2CCN(C(=O)c3ncc(-c4ccnc(C#N)c4)o3)[C@H]2CN1C#N
< 3.52
